# Tested on: E34 (patient-derived glioblastoma stem cells of proneural subtype)
# protocol description: surviving fraction (nuclei count normalised to DMSO); higher = more cells surviving (less toxic)
# assay setup: 37 nM; exposure time: 72 h
Counter-ions that a name gives are not always drawn.
Decision: surviving fraction compared against 1; not below it gives 1, below it gives -1.

Example entries and their recorded answers appear below.
# compound, qualitative label
records = [
    ("Cc1cc(C(C)(C)CC(C)(C)C)ccc1OCCOCC[N+](C)(C)Cc1ccccc1 [Methyl benzethonium chloride]", 1),
    ("CN[C@@H](C)C(=O)N[C@H](C(=O)N1CCC[C@H]1C(=O)N[C@H]1c2ccccc2C[C@H]1OCC#CC#CCO[C@@H]1Cc2ccccc2[C@@H]1NC(=O)[C@@H]1CCCN1C(=O)[C@@H](NC(=O)[C@H](C)NC)C1CCCCC1)C1CCCCC1 [AZD5582]", -1),
    ("N=C(N)c1ccc(-c2ccc(-c3ccc(C(=N)N)cc3)o2)cc1 [Furamidine dihydrochloride]", 1),
    ("CNCCCC12CCC(c3ccccc31)c1ccccc12 [Maprotiline hydrochloride]", -1),
]

Turning now to a further record.
For this compound, is measured surviving fraction 1 or higher? Nc1ncnc2c1c(-c1ccc(Oc3ccccc3)cc1)cn2C1CCCC1
1

---

Please go through the items and note down their phenotypic distance.
# Test system: FT3469 (normal neural stem cell line);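 note: cell Painting imaging in 384-well plates, CellProfiler features reduced to at least 20 principal components, Euclidean distance versus same-plate DMSO vehicle wells (0.1% v/v), median over six images per well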
# protocol description: phenotypic distance (Euclidean, principal components) from DMSO controls (arbitrary units); higher = stronger morphological change
# assay setup: 37.037 nM; exposure time: 72 h

Consider the worked cases shown below.
# compound, phenotypic distance
records = [
    ("O=[N+]([O-])c1ccc2c(c1)S(=O)(=O)C=C2", 0.934),
    ("CC(C)C[C@H](NC(=O)[C@H](Cc1ccccc1)C[C@@H](O)[C@H](Cc1ccccc1)NC(=O)OC(C)(C)C)C(=O)N[C@@H](Cc1ccccc1)C(N)=O", 0.598),
]

Field: phenotypic distance. Fill in for each record below.
1. CC(C)(C)CC(C)(C)c1ccc(OCCOCC[N+](C)(C)Cc2ccccc2)cc1 [Benzethonium chloride]
2. CC(C)C[C@H](NC(=O)[C@H](Cc1ccccc1)NC(=O)c1cnccn1)B(O)O
3. O=c1c2ccccc2[se]n1-c1ccccc1
4. O=C(O)c1ccc(-c2c[nH]c3ncc(-c4ccccc4)cc23)cc1C1CCCC1

1: 0.855; 2: 8.16; 3: 0.785; 4: 0.627

---

# Test system: E31 (patient-derived glioblastoma stem cells of proneural subtype)
# protocol description: surviving fraction (nuclei count normalised to DMSO); higher = more cells surviving (less toxic)
# assay setup: 12.3 nM; exposure time: 72 h
Structures can show the parent of a compound that is named as a salt.
Answer each item with its documented surviving fraction.

# compound, test system, surviving fraction
rows = [
    ("CN1C(=O)OC(C)(C)C1=O", "E31", 1.03),
]

Please look at the items below and tell me surviving fraction for each one, in order.
1. CC(=O)O[C@H]1C[C@H](O[C@H]2[C@@H](O)C[C@H](O[C@H]3[C@@H](O)C[C@H](O[C@H]4CC[C@@]5(C)[C@H](CC[C@@H]6[C@@H]5C[C@@H](O)[C@]5(C)[C@@H](C7=CC(=O)OC7)CC[C@]65O)C4)O[C@@H]3C)O[C@@H]2C)O[C@H](C)[C@H]1O[C@@H]1O[C@H](CO)[C@@H](O)[C@H](O)[C@H]1O [Lanatoside C]
2. CC(C)(Oc1ccc(C2CC2(Cl)Cl)cc1)C(=O)O (stereo unspecified) [Ciprofibrate]
3. COc1cc2c(c(OC)c1OC)-c1ccc(OC)c(=O)cc1[C@@H](NC(C)=O)CC2
4. CCC[C@@H]1C[C@@H](C(=O)N[C@@H]([C@H]2O[C@H](SC)[C@H](O)[C@@H](O)[C@H]2O)[C@@H](C)O)N(C)C1 [Lincomycin hydrochloride]
5. CCC(C)(C)c1ccc(CC(C)CN2C[C@@H](C)O[C@@H](C)C2)cc1 (stereo partly specified) [Amorolfine hydrochloride]

1. 0.646
2. 0.902
3. 0.0944
4. 0.994
5. 0.934
